Test system: CP192
RUN_DESCRIPTION: qHTS profiling for inhibitors of Plasmodium falciparum proliferation (AID 504749); also: nearly all actives have a fitted effect of over 60% in size
CONDITION_SET: P. falciparum in erythrocytes, SYBR Green DNA, 72 h; series mostly up to 28.7 µM
Records with an inconclusive call do not appear. Calls of active or inactive are those of the source. Calls follow the shape of the dose curve; as a rule, active = well fitted inhibition curve with a large enough effect; inconclusive = small, poorly fitted or top-dose-only effect; inactive = flat fitted curve, though single readings scatter.
I would appreciate it if you answered using one of these outcomes: true (1) for active, false (0) for inactive

A selection of reference data follows.
compound=O=C(O)C(Cl)(Cl)Cl assay_target=CP192 classification="false (0)"
compound=ClC(Cl)(Cl)Cl assay_target=CP192 classification="false (0)"
compound="[N-]=[N+]=CC(=O)OCC(N)C(=O)O (stereo unspecified)" assay_target=CP192 classification="false (0)"
compound=CCC1(C)CC(=O)NC(=O)C1 assay_target=CP192 classification="false (0)"
compound=CC(C)(C)c1cc(O)ccc1O assay_target=CP192 classification="false (0)"

Alright, here's another compound for you.
Please state the recorded outcome for this compound: `N#CC(C#N)=Cc1cc(O)c(O)c(O)c1`
true (1)

Data credit: PubChem BioAssay (NCATS)
